experimentalSystem: Yer184c (UniProt P39961)
Sequence: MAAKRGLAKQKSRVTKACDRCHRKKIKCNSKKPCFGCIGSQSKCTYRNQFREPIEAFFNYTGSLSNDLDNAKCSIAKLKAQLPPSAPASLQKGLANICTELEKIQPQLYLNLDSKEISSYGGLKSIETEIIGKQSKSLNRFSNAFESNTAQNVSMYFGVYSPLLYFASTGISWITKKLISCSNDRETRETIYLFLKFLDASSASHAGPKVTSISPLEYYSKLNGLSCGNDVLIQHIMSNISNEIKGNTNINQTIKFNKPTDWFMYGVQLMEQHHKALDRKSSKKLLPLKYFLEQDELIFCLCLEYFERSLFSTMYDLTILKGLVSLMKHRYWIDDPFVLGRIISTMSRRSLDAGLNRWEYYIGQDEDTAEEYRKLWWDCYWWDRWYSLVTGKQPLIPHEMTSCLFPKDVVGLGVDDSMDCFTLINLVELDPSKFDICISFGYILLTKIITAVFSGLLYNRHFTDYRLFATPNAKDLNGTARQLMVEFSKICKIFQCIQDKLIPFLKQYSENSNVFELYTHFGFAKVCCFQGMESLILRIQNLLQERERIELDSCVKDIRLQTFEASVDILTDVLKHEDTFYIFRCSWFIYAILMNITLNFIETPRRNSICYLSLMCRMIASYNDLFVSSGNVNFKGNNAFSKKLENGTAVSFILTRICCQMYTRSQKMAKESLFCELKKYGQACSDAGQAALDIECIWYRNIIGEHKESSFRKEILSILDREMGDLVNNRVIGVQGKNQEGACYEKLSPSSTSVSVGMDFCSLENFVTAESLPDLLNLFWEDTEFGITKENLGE
measurementProtocol: PBM E-score (8-mer binding enrichment) (E-score (-0.5 to 0.5)); higher = stronger / more preferred TF binding
runParameters: protein concentration: 100 nM; construct: GST-full length
Over roughly 33,000 sequences, “E-score (-0.5 to 0.5)” has its median near -0.016; the highest 2% begin near 0.3. For the sample, the highest values were picked, then their nearest neighbours and some sequences at random.
endpoint: PBM E-score

>>> print(df.to_string())
    sequenceinput     endpoint  resultvalue
 0       GATGCCGC  PBM E-score        0.106
 1       CCGGTAAG  PBM E-score        0.369
 2       ACGGTAAG  PBM E-score     -0.00751
 3       ATCCTCGG  PBM E-score        0.218
 4       ATTGCCGC  PBM E-score        0.162
 5       AGCGGTGA  PBM E-score      -0.0103
 6       ATTGCCGA  PBM E-score        0.311
 7       AAAGGGAG  PBM E-score       -0.313
 8       TCGGTAAA  PBM E-score        0.296
 9       GATGCCAA  PBM E-score       -0.105
10       CCGGTAAC  PBM E-score        0.259

* * *

experimentalSystem: Yer184c (UniProt P39961)
Sequence: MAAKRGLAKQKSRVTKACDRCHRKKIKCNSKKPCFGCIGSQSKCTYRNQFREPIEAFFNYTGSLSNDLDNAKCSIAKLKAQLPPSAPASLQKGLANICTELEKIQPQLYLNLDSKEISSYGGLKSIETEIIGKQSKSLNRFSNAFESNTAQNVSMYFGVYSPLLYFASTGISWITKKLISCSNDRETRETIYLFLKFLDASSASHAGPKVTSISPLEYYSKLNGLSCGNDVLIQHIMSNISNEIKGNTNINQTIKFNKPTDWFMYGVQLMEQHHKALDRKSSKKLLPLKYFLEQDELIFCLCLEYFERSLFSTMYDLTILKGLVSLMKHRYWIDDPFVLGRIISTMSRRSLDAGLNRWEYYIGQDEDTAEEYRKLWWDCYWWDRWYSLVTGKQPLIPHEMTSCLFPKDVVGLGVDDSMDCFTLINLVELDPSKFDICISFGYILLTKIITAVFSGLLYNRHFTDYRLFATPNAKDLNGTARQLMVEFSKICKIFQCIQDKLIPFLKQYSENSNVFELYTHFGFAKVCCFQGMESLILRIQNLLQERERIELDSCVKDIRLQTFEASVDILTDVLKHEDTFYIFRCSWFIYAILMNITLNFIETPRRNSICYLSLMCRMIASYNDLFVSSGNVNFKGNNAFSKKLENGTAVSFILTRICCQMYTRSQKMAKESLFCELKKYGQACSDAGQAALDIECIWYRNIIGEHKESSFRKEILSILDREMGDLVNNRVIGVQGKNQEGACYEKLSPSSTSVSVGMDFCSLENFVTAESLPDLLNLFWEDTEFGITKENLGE
measurementProtocol: PBM E-score (8-mer binding enrichment) (E-score (-0.5 to 0.5)); higher = stronger / more preferred TF binding
runParameters: protein concentration: 100 nM; construct: GST-full length
The full ranking holds about 33,000 sequences; the median of “E-score (-0.5 to 0.5)” is about -0.016, and the highest 2% start at about 0.3. The sample as a whole holds a higher share of the highest values than the screen did.
endpoint: PBM E-score

>>> df
    sequenceinput  resultvalue
 0       AGCGGAGA      -0.0382
 1       ACTGGCGG      -0.0142
 2       CGCGGATA        0.317
 3       CGCGGATC         0.13
 4       GCTCTTCC       0.0925
 5       CACGGATG        0.108
 6       ATTTATCA        0.258
 7       TAGTCTAA       -0.101
 8       CGCGGAGC        0.171
 9       GACGGATC        0.115
10       AGAATGCT       -0.168
